Target: T1, recombinant His-tagged full-length ERG (UniProt P11308 1-479, biotinylated with NHS-PEG4 biotin for the OctetRED assays)
T1 construct: mature; Baculovirus expression in SF9 cells, Ni-NTA purified; also called wild-type ERG; wtERG; not shown: His tag
T1 sequence (looked up): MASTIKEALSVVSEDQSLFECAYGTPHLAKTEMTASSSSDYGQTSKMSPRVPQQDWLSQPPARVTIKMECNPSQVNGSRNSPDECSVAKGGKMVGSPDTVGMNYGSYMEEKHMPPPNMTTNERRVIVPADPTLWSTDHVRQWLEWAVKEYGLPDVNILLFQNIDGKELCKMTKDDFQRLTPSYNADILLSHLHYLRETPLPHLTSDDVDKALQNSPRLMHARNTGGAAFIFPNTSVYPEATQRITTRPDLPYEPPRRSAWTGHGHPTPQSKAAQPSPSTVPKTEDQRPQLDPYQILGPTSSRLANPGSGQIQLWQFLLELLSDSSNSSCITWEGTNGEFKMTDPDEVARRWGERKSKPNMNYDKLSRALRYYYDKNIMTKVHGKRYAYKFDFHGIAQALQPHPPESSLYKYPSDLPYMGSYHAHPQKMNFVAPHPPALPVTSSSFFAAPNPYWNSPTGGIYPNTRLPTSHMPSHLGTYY
Assay: binding assay of capped EIP1 variants (FIG. 13); capped EIP1, Y4K
pKd: −log10 of the molar value.

- binder: "Ac-LPPKLFT-NH2 [capped EIP1 with Y at position four mutated to K]"
  pKd: 5.37
